- experiment-summary: qHTS Screen for Compounds that Selectively Target Cancer Cells with p53 Mutations: Cytotoxicity of p53 Null Cells at the Nonpermissive Temperature; also: nearly all actives have a fitted effect of over 50% in size
- experimental-setup: H1299 p53-null (neo) cells, 39C, ATPlite viability, 24 h; series mostly up to 46.1 µM
Hit rate of the full screen: of about 55,000 compounds, about 530 (0.96%) were called active. About 7% were inconclusive and are not listed. Calls follow the shape of the dose curve; as a rule, active = well fitted cell-killing curve with a large enough effect; inconclusive = small, poorly fitted or top-dose-only effect; inactive = no such curve, though single readings can be large or run the other way. The list comes from a sample in which actives are over-represented; it also holds close analogues and randomly drawn compounds.
Hi there, use one of these labels in your reply, thanks! active, inactive

**Q:** What is the recorded call for this compound in the test? O=C(NC1CCN(C(=S)NCc2ccco2)CC1)c1ccc(F)cc1
**A:** inactive

**Q:** What is the recorded call for this compound in the test? Cc1ccc(C)c(N2CCN(CCCNC(=O)Nc3ccc(Cl)cc3)CC2)c1
**A:** active

**Q:** What is the recorded call for this compound in the test? Cc1ccc2nc(CN3CCN(S(=O)(=O)c4ccc(C)c(C)c4)CC3)oc2c1
**A:** inactive

**Q:** What is the recorded call for this compound in the test? CCCC(=O)Nc1cc(C(=O)NCc2ccc(OC)cc2)ccc1S(=O)(=O)c1ccc(Cl)cc1
**A:** inactive

**Q:** What is the recorded call for this compound in the test? CCOCN(C(=O)Cn1c(C(C)O)nc2ccccc21)c1c(C)cccc1CC (stereo not given)
**A:** inactive

**Q:** What is the recorded call for this compound in the test? Cc1ccccc1-n1c(C)cc(/C=C2\NC(=O)NC2=O)c1C
**A:** active

**Q:** What is the recorded call for this compound in the test? CC1=C(c2ccc(Cl)cc2)S(=O)(=O)N=C1N1CCN(c2cc(C)ccc2C)CC1
**A:** inactive

**Q:** What is the recorded call for this compound in the test? O=C(Nc1ccc2c(c1)OCO2)c1cc(-c2cccc(Cl)c2)on1
**A:** inactive

**Q:** What is the recorded call for this compound in the test? Cc1cc(C)c(/C=C/c2onc(C)c2S(=O)(=O)N2CCC(C(=O)Nc3ccc(Cl)cc3C)CC2)c(C)c1
**A:** inactive

**Q:** What is the recorded call for this compound in the test? Cc1cc(C)cc(C(=O)N2CCN=C2SCc2ccc([N+](=O)[O-])cc2)c1
**A:** inactive

---

- experiment-summary: qHTS Screen for Compounds that Selectively Target Cancer Cells with p53 Mutations: Cytotoxicity of p53 Null Cells at the Nonpermissive Temperature; also: nearly all actives have a fitted effect of over 50% in size
- experimental-setup: H1299 p53-null (neo) cells, 39C, ATPlite viability, 24 h; series mostly up to 46.1 µM
About 530 (0.96%) of roughly 55,000 compounds were called active. Roughly 7% stayed inconclusive and do not appear here. Calls come from the whole dose curve; as a rule, active = well fitted cell-killing curve with a large enough effect; inconclusive = small, poorly fitted or top-dose-only effect; inactive = no such curve, though single readings can be large or run the other way. The entries come from a sample that favours actives as a whole.
Hi there, use one of these labels in your reply, thanks! active, inactive

**Q:** What is the recorded call for this compound in the test? CCc1ccc(CNC(=O)c2cc3cc4ccc(OC)cc4nc3o2)cc1
**A:** inactive

**Q:** What is the recorded call for this compound in the test? COc1ccc(C(=O)Nc2onc3c2CCCC3)cc1
**A:** active

**Q:** What is the recorded call for this compound in the test? CCC(=O)N1c2ccccc2CC1C(=O)N1CCN(c2ccccc2F)CC1 (stereo not given)
**A:** inactive

**Q:** What is the recorded call for this compound in the test? COc1ccccc1NC(=O)c1cc(S(=O)(=O)NCCc2ccccc2)ccc1F
**A:** inactive

**Q:** What is the recorded call for this compound in the test? COc1ccc(OCCCn2c(C3CC(=O)N(c4ccc(F)cc4)C3)nc3ccccc32)cc1 (stereo not given)
**A:** inactive

**Q:** What is the recorded call for this compound in the test? COc1ccc(-c2cc(C(=O)Nc3sc4c(c3C(N)=O)CCCC4)no2)cc1
**A:** inactive

**Q:** What is the recorded call for this compound in the test? Cc1cccc(-n2c(=O)c3c(c4cc(C)ccc4n3C)n(CC(=O)Nc3ccccc3Cl)c2=O)c1
**A:** inactive

**Q:** What is the recorded call for this compound in the test? Cc1ccc(OCCSc2nc(-c3cccs3)nc3cc(=O)[nH]n23)cc1Cl
**A:** inactive

**Q:** What is the recorded call for this compound in the test? CCCCN1CC(c2nc3ccccc3n2CCCCOc2ccc(C)cc2C)CC1=O (stereo not given)
**A:** inactive

**Q:** What is the recorded call for this compound in the test? CCOC(=O)c1nc(Nc2ccc(C(=O)OC)cc2)c2ccccc2n1
**A:** inactive
